These measurements were taken from paper PMC7018972.

- Measured on: Fasciola hepatica TIM (FhTIM) (Fasciola hepatica)
- Assay details: Inhibition of recombinant FhTIM, coupled enzyme assay
- Assay type: biochemical
- Condition summary: IC50 range, Figure 1, ranges of inhibitory activity
pIC50: −log10 of the molar value.
Metric name: pIC50

I am curious: what pIC50 value has been reported for COc1cc(/C=C/C(=O)CC(=O)/C=C/c2ccc(O)c(OC)c2)ccc1O [Compound 906] ?
> 4.30

* * *

Quick reference: IC50 of the listed items.
- Tested on: newly excysted juvenile (NEJ) F. hepatica
- Assay details: In vitro NEJ treatment
- Type: cell-based, Fasciola hepatica
- Condition summary: Fasciola hepatica; NEJ, incubation time 72 h

Record excerpt, results attached:
Compound: CSc1nc2cc(Cl)c(Oc3cccc(Cl)c3Cl)cc2[nH]1 [Compound 1278, triclabendazole, reference compound]
Measured on: newly excysted juvenile (NEJ) F. hepatica
Metric name: IC50
Recorded value: > 50 µM
//
Compound: O=C1C(=Cc2ccc([N+](=O)[O-])o2)C(=O)N(Cc2ccccc2)S(=O)(=O)N1Cc1ccccc1 [Compound 116]
Measured on: newly excysted juvenile (NEJ) F. hepatica
Metric name: IC50
Recorded value: > 50 µM

Okay, now this compound:
IC50 lookup needed for O=C1C(=Cc2ccc([N+](=O)[O-])s2)C(=O)N(CCc2ccccc2)S(=O)(=O)N1CCc1ccccc1 [Compound 115] , thanks.
7 µM

* * *

- Measured on: Fasciola hepatica TIM (FhTIM) (Fasciola hepatica, UniProt S4UI50)
- Sequence (S4UI50 entry or part of it): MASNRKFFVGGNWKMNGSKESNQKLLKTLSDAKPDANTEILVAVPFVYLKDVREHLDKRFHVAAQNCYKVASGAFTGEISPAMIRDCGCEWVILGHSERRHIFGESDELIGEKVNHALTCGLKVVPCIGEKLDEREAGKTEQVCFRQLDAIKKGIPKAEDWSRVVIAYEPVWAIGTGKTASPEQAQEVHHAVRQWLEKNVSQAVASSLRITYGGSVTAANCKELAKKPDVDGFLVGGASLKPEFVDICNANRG
- Assay details: Inhibition of recombinant FhTIM, coupled enzyme assay
- Format: biochemical
- Condition summary: Table 1S, screening of 340 compounds in FhTIM; table head prints no unit, µM per b8/b9; read-out: IC50
Metric name: IC50

Solved cases below.
Molecule: C=CCn1c(-c2ccccc2)csc1=NN=CC=Cc1ccco1
Measured on: Fasciola hepatica TIM (FhTIM) (Fasciola hepatica, UniProt S4UI50)
Recorded value: > 100 µM

Molecule: CC(=O)Nc1ccc(C=C2CN(C)CC(=Cc3ccc(NC(C)=O)cc3)C2=O)cc1
Measured on: Fasciola hepatica TIM (FhTIM) (Fasciola hepatica, UniProt S4UI50)
Recorded value: > 100 µM

Molecule: CC12CCC(O)CC1=CCC1C2CCC2(C)C(C(=O)C=CC=Cc3ccccc3)CCC12 (stereo not shown)
Measured on: Fasciola hepatica TIM (FhTIM) (Fasciola hepatica, UniProt S4UI50)
Recorded value: > 100 µM

Molecule: O=S(=O)(NCc1ccccc1)NCc1ccccc1
Measured on: Fasciola hepatica TIM (FhTIM) (Fasciola hepatica, UniProt S4UI50)
Recorded value: > 100 µM

Molecule: C=CCNC(=S)NN=Cc1ccnc2ccccc12
Measured on: Fasciola hepatica TIM (FhTIM) (Fasciola hepatica, UniProt S4UI50)
Recorded value: 50 to 100 µM

Molecule: C=CCNC(=S)NN=Cc1ccsc1
Measured on: Fasciola hepatica TIM (FhTIM) (Fasciola hepatica, UniProt S4UI50)
Recorded value: > 100 µM

Molecule: C=CCn1c(-c2ccccc2)csc1=NN=Cc1ccc(S(=O)(=O)O)o1
Measured on: Fasciola hepatica TIM (FhTIM) (Fasciola hepatica, UniProt S4UI50)
Recorded value: > 100 µM

Molecule: C=CCN1C(=O)C(CC(=O)O)SC1=NN=Cc1cccs1 (stereo not shown)
Measured on: Fasciola hepatica TIM (FhTIM) (Fasciola hepatica, UniProt S4UI50)
Recorded value: 50 to 100 µM

Molecule: COC(=O)NN=Cc1ccc2nonc2c1
Measured on: Fasciola hepatica TIM (FhTIM) (Fasciola hepatica, UniProt S4UI50)
Recorded value: > 100 µM

Now turn to the next molecule.
Query for Fasciola hepatica TIM (FhTIM) (Fasciola hepatica, UniProt S4UI50): what IC50 does the record show for `S=C(NN=C/C=C/c1ccco1)Nc1ccccc1` ?
> 100 µM

* * *

- Measured on: Fasciola hepatica TIM (FhTIM) (Fasciola hepatica)
- Assay details: Inhibition of recombinant FhTIM, coupled enzyme assay
- Format: biochemical
- Condition summary: Table 1S, screening of 340 compounds in FhTIM; table head prints no unit, µM per b8/b9; read-out: IC50
Parameter: IC50. Scope: all listed entries.

Compound: CCCCCCN1C(=O)C(=Cc2ccc([N+](=O)[O-])cc2)C(=O)N(CCCCCC)S1(=O)=O [Compound 128]
IC50: < 25 µM

Compound: C=CCn1c(-c2ccc(Cl)cc2)csc1=NN=Cc1ccc2no[n+]([O-])c2c1 [Compound 304]
IC50: > 100 µM

# evaluate next
For the compound Cc1c(C(=O)NN=Cc2ccccc2)no[n+]1[O-] [Compound 824] , what IC50 is on record?
> 100 µM

* * *

- Measured on: Fasciola hepatica TIM (FhTIM) (Fasciola hepatica, UniProt S4UI50)
- Assay details: Inhibition of recombinant FhTIM, coupled enzyme assay
- Assay type: biochemical
- Condition summary: recombinant FhTIM, 1 h incubation with compound at 37 °C; read-out: IC50
- Description: Expression and purification of proteins: FhTIM, RabbitTIM and HsTIM were expressed in Escherichia coli and purified as described in the literature[31],[37]. […] Enzymatic activity was determined following the conversion of glyceraldehydes-3-phosphate into dihydroxyacetone phosphate in a coupled enzyme assay. The decrease in absorbance at 340 nm was followed in a multiplate reader VarioskanTM Flash Multimode Reader (Thermo ScientificTM, Waltham, MA, USA) at 38 °C. […]
Metric name: pIC50
In textbook form, pIC50 equals minus log to base ten of the concentration in mol/L.

Examples with answers:
Compound: CN(C)Cc1ccccc1Cn1nc(O)c2cc([N+](=O)[O-])ccc21 [Compound 482]
Recorded value: 4.52

Compound: Cc1ccc(-c2nsc(S(=O)(=O)c3ccc(C)cc3)n2)cc1 [Compound 187]
Recorded value: 5.40

Compound: O=C1C(=Cc2ccc([N+](=O)[O-])s2)C(=O)N(CCc2ccccc2)S(=O)(=O)N1CCc1ccccc1 [Compound 115]
Recorded value: 5.10

Turning now to a further record.
Give its pIC50 value. Item: C=CCn1c(-c2ccc(Cl)cc2)csc1=NN=CC=Cc1cccs1 [Compound 1134]
4.35

* * *

- System: S. mansoni somules
- Assay details: S. mansoni somules phenotypic screen in vitro
- Assay type: cell-based, Schistosoma mansoni
- Condition summary: Table 2S, 10 uM, 3d
Catalogue of SOMULES SEVERITY SCORE values
Answer with a bare number; do not write a unit.

Compound: C=CCNC(=S)NN=Cc1ccc2c(c1)[n+]([O-])c(C(=O)Nc1ccccc1)c(C)[n+]2[O-] [Compound 490]
SOMULES SEVERITY SCORE: 0
//
Compound: O=C(C=Cc1ccc2ccccc2c1)c1c(O)ccc2ccccc12 [Compound 1254]
SOMULES SEVERITY SCORE: 0
//
Compound: CCCCN1C(=O)C(=Cc2ccc([N+](=O)[O-])s2)C(=O)N(CCCC)S1(=O)=O [Compound 1148]
SOMULES SEVERITY SCORE: 0

Now for a further compound.
GET /values?readout=SOMULES SEVERITY SCORE&item= O=C1C(=Cc2ccc([N+](=O)[O-])s2)C(=O)N(CCc2ccccc2)S(=O)(=O)N1CCc1ccccc1 [Compound 115]
4

* * *

- Measured on: Fasciola hepatica TIM (FhTIM) (Fasciola hepatica)
- Assay details: Inhibition of recombinant FhTIM, coupled enzyme assay
- Assay type: biochemical
- Condition summary: Table 1S, screening of 340 compounds in FhTIM; table head prints no unit, µM per b8/b9; read-out: IC50
Metric name: IC50

The following compounds have reported results that may help.
Smiles structure: O=C1C(=Cc2cccs2)CCCC1=Cc1cccs1
Metric name: IC50
Recorded value: > 100 µM
--
Smiles structure: Nc1nc(-c2ccc([N+](=O)[O-])cc2)cs1
Metric name: IC50
Recorded value: > 100 µM
--
Smiles structure: [O-][n+]1onc2ccc(CN3CCN(CC=Cc4ccccc4)CC3)cc21
Metric name: IC50
Recorded value: > 100 µM
--
Smiles structure: O=[N+]([O-])c1cc(CI)ccc1F
Metric name: IC50
Recorded value: 100 µM
--
Smiles structure: C=CCn1c(C)csc1=NN=Cc1ccc(S(=O)(=O)O)o1
Metric name: IC50
Recorded value: > 100 µM

Return reported IC50; argument: `N#CSc1ccc(C=O)cc1[N+](=O)[O-]`
100 µM

Bench note: what IC50 did `O=S(=O)(NCCc1ccccc1)NCCc1ccccc1` show?
> 100 µM

Could you tell me which IC50 is on file for `CCOC(=O)c1nc2ccc([N+](=O)[O-])cc2n1O` ?
> 100 µM

Value lookup for IC50; key = `O=[N+]([O-])c1ccc(C=NN=c2[nH]c(-c3ccc(Cl)cc3)cs2)s1`
> 100 µM

Any idea what IC50 was measured for `C=CCn1c(C(=O)N2CCN(C)CC2)csc1=NN=C/C=C/c1ccco1` ?
> 100 µM

Can you share its IC50? I mean this compound: `N#Cc1c2ccccc2[n+]([O-])n1-c1ccc2ccccc2c1`
> 100 µM

Which IC50 is reported for this compound? `CC(/C=N/N1CCSCC1)=C\c1ccco1`
50 to 100 µM

Returns the measured IC50 for the input compound. Input: `[O-][N+]1=c2ccccc2=[N+]([O-])C12CCCC2`
> 100 µM

Dear colleague, I am looking for the recorded IC50 of the following compound: `O=[N+]([O-])c1ccc2c(c1)c(O)nn2CCOCCN1CCSCC1`
> 100 µM

What measured IC50 goes with `Cc1ccc(C=CC=NN2CCN(CC=Cc3ccccc3)CC2)o1` ?
> 100 µM
